Experimental System: Serine/threonine-protein phosphatase PP1-alpha catalytic subunit (Homo sapiens)
Assay Method Text: inhibition of human PP1 catalytic subunit – biochemical, fluorescence, OMFP substrate, single point, counter-screen for PP5 inhibitor project, primary screen (AID 2235)
Particulars: purified PP1alpha, at 6.7 µM, active compounds read high
About 2,800 (0.88%) of roughly 320,000 compounds were called active. This excerpt belongs to a sample that is enriched for actives.
Task for the reader: assign each of the following compounds its reported inhibition.
One number for each entry, in %.

Some compounds with known inhibition results, for comparison:
Cc1ccc(OCC(=O)Nc2ccc(-c3nnc(-c4ccco4)o3)cc2)cc1: 24.5
Cc1ccc(OCC(=O)Nc2ccc(-c3nc4ncccc4o3)cc2)cc1: 0.81
CC1=NN(c2ccccc2)C(=O)C1C(=O)c1ccc([N+](=O)[O-])cc1 (stereo not given): -1.75
Cc1nc2ccccc2c(=O)n1NC(=O)c1ccc(Cl)c([N+](=O)[O-])c1: 2.24

Now, please, on to the next compound.
Given the compound "Cc1nn(-c2ccc([N+](=O)[O-])cc2)c(N)c1-c1ccccc1" , write its reported inhibition.
-0.19

###

Experimental System: Serine/threonine-protein phosphatase PP1-alpha catalytic subunit (Homo sapiens) (UniProt P62136)
Sequence (P62136 whole entry, looked up): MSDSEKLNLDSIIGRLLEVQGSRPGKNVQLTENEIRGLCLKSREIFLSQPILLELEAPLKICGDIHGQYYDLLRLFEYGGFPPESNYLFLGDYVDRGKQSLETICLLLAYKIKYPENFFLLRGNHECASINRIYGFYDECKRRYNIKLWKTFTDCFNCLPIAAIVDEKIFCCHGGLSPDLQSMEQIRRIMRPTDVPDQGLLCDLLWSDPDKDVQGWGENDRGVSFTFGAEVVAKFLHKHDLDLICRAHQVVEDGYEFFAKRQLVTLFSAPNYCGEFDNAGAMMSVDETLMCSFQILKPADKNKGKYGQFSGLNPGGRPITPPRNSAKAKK
Assay Method Text: inhibition of human PP1 catalytic subunit – biochemical, fluorescence, OMFP substrate, single point, counter-screen for PP5 inhibitor project, primary screen (AID 2235)
Particulars: purified PP1alpha, at 6.7 µM, active compounds read high
The campaign covered roughly 320,000 compounds. About 2,800 (0.88%) were called active. This excerpt belongs to a sample that is enriched for actives.
I'd be grateful if you could share measured inhibition for these entries.
One number for each entry, in %.

COc1cc(C(C(=O)NC2CCCC2)N(Cc2ccccc2)C(=O)c2snc(C(N)=O)c2N)ccc1O (stereo not given): -0.55
O=C1C(=O)N(CC2COc3ccccc3O2)c2ccccc21 (stereo not given): 18.4
NS(=O)(=O)c1ccc(CCNC(=O)COC(=O)COc2cccc(C(F)(F)F)c2)cc1: -0.82
CC(C)Cn1c(N)c(C(=O)COC(=O)CN2C(=O)C3CC=CCC3C2=O)c(=O)n(C)c1=O (stereo not given): -0.85

Here is the next item to consider.
Look up and report measured inhibition for this entry: Cc1c(Cl)c([N+](=O)[O-])nn1CC(=O)NCC1CCCO1 (stereo not given)
-3.7

###

Provide the recorded inhibition for the entries that follow.
Experimental System: Serine/threonine-protein phosphatase PP1-alpha catalytic subunit (Homo sapiens)
Assay Method Text: inhibition of human PP1 catalytic subunit – biochemical, fluorescence, OMFP substrate, single point, counter-screen for PP5 inhibitor project, primary screen (AID 2235)
Particulars: purified PP1alpha, at 6.7 µM, active compounds read high
Hit rate of the full screen: of about 320,000 compounds, about 2,800 (0.88%) were called active. What follows is part of a selection rich in actives, with near analogues and random picks from the rest.
One number for each entry, in %.

// below: answered compounds
CCc1ccc(-c2nn(-c3ccccc3C)cc2C(=O)N2CCN(C3CCS(=O)(=O)C3)CC2)cc1 (stereo not given): -1.65
Cc1ccccc1-n1c(SCC(=O)Nc2cccc3ccccc23)nc(O)cc1=O: 15.6
Cc1nnc(NC(=O)CCC(=O)N2CCC(C)CC2)s1: -0.54
CCCCN(CC)C(=O)c1ccccc1Oc1ccccc1: -1.38
O=C1CC(c2c(F)cccc2Cl)C(n2cncn2)C(O)=C1C1NCCc2ccccc21 (stereo not given): 3.05
O=C(COc1ccc(S(=O)(=O)NCc2ccccc2)cc1)N1CCOCC1: 0.87
CCc1ccc(-c2nn(-c3ccccc3)cc2CSC(=N)N)cc1: 16.1
Cc1cc(C)nc(-n2nc(C)cc2NC(=O)c2ccc(F)cc2F)n1: -0.61

Would you be so kind as to report inhibition for each listed record?
1. C=CCn1c(N)cc(=O)nc1SCC(=O)Nc1cccc2ccccc12
2. COc1ccc(C(=O)c2c3ccc([N+](=O)[O-])cc3[n+]([O-])n2CCCN)cc1

1: 2.61; 2: 5.14
